# Species: Mus musculus
# method: Tissue distribution expressed as percentage injected dose per gram of tissue in normal mice heart after 4 hour
# Type: ADME, organism-based
# assay-context: in vivo
observed-property: ID/g (%)
Reply numerically in %, unit not repeated.

// fetch ID/g given entry `N=C(N)NCc1ccc(F)c(I)c1`
18.3

// fetch ID/g given entry `N=C(N)NCc1ccc(F)cc1`
5.9

// fetch ID/g given entry `N=C(N)NCc1cccc(F)c1`
10.5

* * *

# System: SK-N-SH
# method: The compound was tested for the concentration of inhibition by unlabelled analogues to SK-N-SH human neuroblastoma cells
# Assay type: functional, cell-based
# assay-context: Homo sapiens, SK-N-SH
observed-property: pIC50
Conceptually, pIC50 converts a concentration in mol/L into minus its log10.

// fetch pIC50 given entry `N=C(N)NCc1ccc(F)c(I)c1`
6.70

* * *

# System: SK-N-SH
# method: The compound was tested for the concentration of inhibition by unlabelled analogues to SK-N-SH human neuroblastoma cells
# Assay type: functional, cell-based
# assay-context: sk-n-sh
observed-property: pIC50
Conceptually, pIC50 converts a concentration in mol/L into minus its log10.

// fetch pIC50 given entry `N=C(N)NCc1ccc(F)c(I)c1`
6.70

* * *

// ID/g lookup, one value per entry
# Species: Mus musculus
# method: Tissue distribution expressed as percentage injected dose per gram of tissue in normal mice adrenals after 1 hour
# Assay type: ADME, organism-based, Adrenal gland
# assay-context: in vivo
Reply numerically in %, unit not repeated.

N=C(N)NCc1ccc(F)c(I)c1
21.3
N=C(N)NCc1ccc(F)cc1
15.3

// fetch ID/g given entry `N=C(N)NCc1cccc(F)c1`
13.9
